- STUDY_TARGET: Lactate dehydrogenase-5 (LDH-5) (human) (UniProt P00338)
- PROCEDURE_SUMMARY: SPR
- STATED_CONDITIONS: Aad; SPR (ProteON XPR36) at 25 C in SB: 40 mM HEPES pH 7.5, 125 mM NaCl, 5 mM KCl, 1 mM MgCl2, 0.01% Tween 20; aptamer immobilized via 3' A20/T20 hybridized to …
MEASURED_PARAMETER: Kd (nM)
Give just the number in nM; leave the unit off.

Request: Need Kd, item TGCTGCTGGCTCGTGAGACGGATATCAGGTCTCCTAAGGCTGGC [LDH-Aad1-3]
Response: 0.235
